Recorded values, source paper PMC7216583.

Here, each record is paired with measured viability at 72 h, 5 µM data.
- MEASUREMENT_PROTOCOL: in vitro
- CONDITION_SET: human, Host viability (%) Mean ± SD
Structures can show the parent of a compound that is named as a salt.
READOUT_KIND: viability at 72 h, 5 µM (%)

1. CCN1CCN(c2cc(-c3ccc(F)cc3)c3c(n2)CCCCCC3)CC1 [Blonanserin, reference compound]: 88.3
2. O=S(=O)(NCCNC/C=C/c1ccc(Br)cc1)c1cccc2cnccc12 [H 89 2HCl, reference compound]: 89.4
3. CCOC(=O)CCNc1cc(N2CCc3ccccc3CC2)nc(-c2ccccn2)n1 [GSK-J4 HCl]: 92.2
4. COC(=O)N[C@H](C(=O)N[C@@H](Cc1ccccc1)[C@@H](O)CN(Cc1ccc(-c2ccccn2)cc1)NC(=O)[C@@H](NC(=O)OC)C(C)(C)C)C(C)(C)C [Atazanavir, reference compound]: 90.7
